Source: patent US7534809B2

Collected EC50 values appear next to each entry.
System: HIV BH-10 WT
ASSAY METHOD TEXT: Cell-based assay using BH-10 cells, wild type
EXPERIMENTAL CONDITIONS: BH-10 cells, wild type; read-out: EC50 WT///B
// note: answer is a bare numeric in pM

See these solved cases before continuing.
COP(=O)(c1ccccc1F)c1c(C(N)=O)[nH]c2ccc(Cl)cc12 (stereo not drawn) [Compound 7al] :: 500
COP(=O)(c1cc(C)cc(C)c1)c1c(C(=O)NCc2cc(F)ccc2F)[nH]c2ccc(Cl)cc12 (stereo not drawn) [Compound 18aai] :: 3600

// next entry
Input line: For the molecule shown here, CCOP(=O)(c1cccc(F)c1)c1c(C(N)=O)[nH]c2ccc(Cl)cc12 (stereo not drawn) [Compound 6ae] , give the reported EC50.
Output line: 500

---

Tested on: HIV BH-10 WT
ASSAY METHOD TEXT: Cell-based assay using BH-10 cells, wild type
EXPERIMENTAL CONDITIONS: Human immunodeficiency virus 1, read-out: EC50 WT///B, BH-10 cells, wild type
READOUT: EC50 (nM)
Please reply with the bare figure in nM and do not write the unit itself.

COP(=O)(c1cc(C)cc(C)c1)c1c(C(=O)NCc2cc[n+](C)cc2)[nH]c2ccc(Cl)cc12 (centres unmarked) [Compound 22l] :: 6.1
COP(=O)(c1ccccc1Cl)c1c(C(N)=O)[nH]c2ccc(Cl)cc12 (centres unmarked) :: 0.4
COP(=O)(c1ccccc1)c1c(C(N)=O)[nH]c2ccccc12 (centres unmarked) :: 1
CCOP(=O)(c1cccc(C(F)(F)F)c1)c1c(C(N)=O)[nH]c2ccc(Cl)cc12 (centres unmarked) :: 6.7
COP(=O)(c1cc(C)cc(C)c1)c1c(C(=O)NCc2cc[n+]([O-])cc2F)[nH]c2ccc(Cl)cc12 (centres unmarked) [Compound 22d] :: 2.9

Input line: I'd like to know its EC50. The compound in question is COP(=O)(c1ccccc1)c1c(C(=O)NCN2CCOCC2)[nH]c2ccc(Cl)cc12 (centres unmarked)
Output line: 0.5

Input line: And COP(=O)(c1cc(C)cc(C)c1)c1c(C(=O)NCc2ccncc2)[nH]c2ccc(Cl)c(F)c12 (centres unmarked) [Compound 18r] ?
Output line: 3.8

Input line: # iterate: COP(=O)(c1ccc(C)c(C)c1)c1c(C(N)=O)[nH]c2ccc(Cl)cc12 (centres unmarked)
Output line: 0.5

---

pIC50: −log10 of the molar value.
Heads up, these molecules all have pIC50 values measured for CYP2D6 (Homo sapiens).

Observe how each entry below is paired with its result.
COP(=O)(c1cc(C)cc(F)c1)c1c(C(=O)NCc2cc[n+]([O-])cc2)[nH]c2ccc(Cl)cc12 (stereo not drawn) :: < 5.00
COP(=O)(c1cc(C)cc(C)c1)c1c(C(=O)NCc2cc[n+]([O-])cc2)[nH]c2ccc(Cl)cc12 (stereo not drawn) :: < 5.00

# input for lookup
Input line: Given the entry COP(=O)(c1cc(C)cc(C)c1)c1c(C(=O)NCc2cc[n+]([O-])cc2)[nH]c2ccc(Cl)c(F)c12 (stereo not drawn) , report its measured pIC50.
Output line: < 5.00

---

System: HIV mutant strain Y181C
ASSAY METHOD TEXT: Cell-based assay using BH-10 cells, Y181C mutant
EXPERIMENTAL CONDITIONS: Human immunodeficiency virus 1, read-out: EC50 Y181C, BH-10 cells, Y181C mutant
READOUT: EC50
Don't forget the unit after the value.

Input line: For the molecule COP(=O)(c1cc(C)cc(C)c1)c1c(C(=O)NCc2cncn2C)[nH]c2ccc(Cl)cc12 (stereo not shown) , what EC50 is on record?
Output line: 6.4 nM

Input line: Do the same for COP(=O)(c1cc(C)cc(C)c1)c1c(C(=O)NCc2ccccn2)[nH]c2ccc(Cl)cc12 (stereo not shown) please
Output line: 6.8 nM

Input line: Now try CCOP(=O)(c1cccc(C(C)C)c1)c1c(C(N)=O)[nH]c2ccc(Cl)cc12 (stereo not shown) .
Output line: 9.1 nM

Input line: What do you get for COP(=O)(c1cc(C)cc(C)c1)c1c(C(=O)NCc2ccncc2F)[nH]c2ccc(Cl)cc12 (stereo not shown) [Compound 18h] ?
Output line: 14.3 nM
